# target.or.system: endogenous CETP from serum (Homo sapiens)
# Construct: yielding a concentration of approximately 15 nM endogenous CETP in the assay; from tissue; host or cells: human serum
# Sequence (P11597 18-493): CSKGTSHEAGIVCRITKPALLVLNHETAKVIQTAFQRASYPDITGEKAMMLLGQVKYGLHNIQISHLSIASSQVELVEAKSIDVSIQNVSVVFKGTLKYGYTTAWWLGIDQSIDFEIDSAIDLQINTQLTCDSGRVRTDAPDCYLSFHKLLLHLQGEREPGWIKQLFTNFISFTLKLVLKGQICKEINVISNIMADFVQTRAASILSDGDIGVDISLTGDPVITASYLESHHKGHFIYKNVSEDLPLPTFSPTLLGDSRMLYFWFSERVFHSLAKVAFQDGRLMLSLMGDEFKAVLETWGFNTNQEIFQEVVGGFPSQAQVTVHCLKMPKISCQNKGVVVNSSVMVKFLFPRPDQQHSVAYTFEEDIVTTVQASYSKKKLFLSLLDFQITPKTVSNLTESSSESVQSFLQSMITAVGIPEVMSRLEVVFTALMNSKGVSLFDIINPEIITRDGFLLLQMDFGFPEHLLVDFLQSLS
# experiment.description: RTA assay in 95% human serum (in vitro radioactive assay of CETP-catalyzed CE and TG transfer, endogenous CETP)
# Assay type: biochemical
# condition.context: read-out: IC50 RTA (95% HS)
observable: pIC50
pIC50 here is simply -log10 of the concentration when that concentration is written in mol/L.

test.smiles	pIC50
COc1cc(F)c(-c2ccc(-c3n[nH]c(=O)o3)cc2C)cc1-c1ccc(C(F)(F)F)cc1CC1=NO[C@H](c2cc(C(F)(F)F)cc(C(F)(F)F)c2)C1	6.78

Query: Reported pIC50, compound COc1cc(F)c(-c2ccc(C(=O)O)cc2C)cc1-c1ccc(C(F)(F)F)cc1CC1=NO[C@@H](c2cc(C(F)(F)F)cc(C(F)(F)F)c2)C1 : ____
Response: 5.80

Query: Reported pIC50, compound COc1cc(F)c(-c2ccc(C(=O)O)cc2C)cc1-c1ccc(C(F)(F)F)cc1CC1=NO[C@H](c2cc(C(F)(F)F)cc(C(F)(F)F)c2)C1 : ____
Response: 7.43

Query: Reported pIC50, compound COc1ccc(-c2ccc(C(=O)O)cc2C)cc1-c1ccc(C(F)(F)F)cc1CC1=NO[C@H](c2cc(C(F)(F)F)cc(C(F)(F)F)c2)[C@@H]1C : ____
Response: 6.53
